# test-details: Inhibition of 20S proteosome beta 2 in human MOLT4 cells by ELISA
pIC50: −log10 of the molar value.
recorded-metric: pIC50

> print(dat)
                    structure.smiles.string  observed.value
1  COc1ccc(C[C@H](NC(=O)[C@@H](C)NC(=O)[C@H]2CC[C@H](O)CC2)C(=O)N[C@@H](CC2=CCCC2)C(=O)[C@@]2(C)CO2)cc1          < 4.60

* * *

# assayed-system: Proteasome subunit beta type-1 (Mus musculus)
# Sequence (O09061 whole entry): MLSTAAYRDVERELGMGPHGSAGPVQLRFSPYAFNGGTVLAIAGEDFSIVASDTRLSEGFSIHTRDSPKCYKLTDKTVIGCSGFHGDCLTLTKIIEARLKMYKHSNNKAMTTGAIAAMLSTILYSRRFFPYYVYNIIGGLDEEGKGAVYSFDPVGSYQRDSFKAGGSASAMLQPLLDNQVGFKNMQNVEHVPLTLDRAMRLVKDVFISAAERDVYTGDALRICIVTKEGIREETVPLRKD
# test-details: Inhibition of 20S proteosome beta 1 in mouse A20 cells by ELISA
Measured IC50, listed per entry.
recorded-metric: IC50

> print(dat)
                    structure.smiles.string  observed.value
1  CC(C)C[C@H](NC(=O)CN1CCCCCC1)C(=O)N[C@@H](Cc1ccccc1)C(=O)N[C@@H](Cc1ccccc1)C(=O)[C@@]1(C)CO1        > 250 µM
2  Cc1ccc(CC[C@H](NC(=O)[C@H](Cc2ccccc2)NC(=O)[C@H](CC(C)C)NC(=O)CN2CCCCCC2)C(=O)[C@@]2(C)CO2)cc1         > 25 µM
